pIC50: −log10 of the molar value.
These records show pIC50 for PI3K α (Homo sapiens (Human), UniProt P42336).

| Compound | Measurement |
| --- | --- |
| N#Cc1cnc2ccc(-c3ccc4oc(N)nc4c3)cc2c1-c1ccncc1 | > 7.00 |
| Nc1nc2ccc(-c3ccc4ncc(N5CCOCC5)nc4c3)cc2s1 | > 7.00 |
| Nc1nc2cc(-c3ccn4ncc(C(=O)N5CCC(N6CCOCC6)CC5)c4c3)ccc2o1 | > 6.00 |
| CN1CCC(n2cnc3ccc(-c4ccc5oc(N)nc5c4)cc3c2=O)CC1 | > 7.00 |

// pIC50 value for CC(N)C(=O)N1CCN(c2cnc3ccc(-c4ccc5oc(N)nc5c4)cc3n2)CC1 (centres unmarked) : > 7.00
